Data provenance: PubChem BioAssay (EPA / NIEHS)

Read-out: Monocyte Chemoattractant Protein-1 (MCP1), CCL2 (gene 6347)
Assay: BSK_4H_MCP1: BioMAP Diversity Plus: 4H Assay for Monocyte Chemoattractant Protein-1 (MCP1) Biomarker Activity (AID 2283018)
Conditions: primary human endothelial cells (HUVEC); actives raise or lower the signal
The source made the active and inactive calls. Rule for the calls: active = hit-call score of the fitted dose curve at least 0.9, where 1 is the maximum; inactive = score below 0.9.
Give your call using only these classes: yes (1) = active, no (0) = inactive

compound=CCC(CC)Nc1c([N+](=O)[O-])cc(C)c(C)c1[N+](=O)[O-] group="yes (1)"

So what was the verdict on `C=C(C)[C@H]1Cc2c(ccc3c2O[C@@H]2COc4cc(OC)c(OC)cc4[C@@H]2C3=O)O1` in this test?
yes (1)

So what was the verdict on CCOP(=O)(NC(C)C)Oc1ccc(SC)c(C)c1 (stereo not given) in this test?
no (0)

So what was the verdict on `N#CSCSC#N` in this test?
yes (1)

So what was the verdict on CC(C1CC1)C(O)(Cn1cncn1)c1ccc(Cl)cc1 (stereo not given) in this test?
no (0)

---

Assay: CCTE_Shafer_MEA_acute_burst_number: CCTE's Neural Acute Assay for Single-Electrode Bursts, Shafer Lab (AID 2284013)
Experimental: CCTE_Shafer_MEA_acute assay is conducted using Axion Biosystems 48 well microelectrode array (MEA) plates and Maestro recording system. Each well of the MEA plate contains a grid of 16 microelectrodes embedded in the culture surface. Electrically active cells, such as neurons, can be cultured over the electrodes, and electrical activity in these cells can be recorded extracellularly. […]
Calls of active or inactive are those of the source. The calls were made as follows: active = hit-call score of the fitted dose curve at least 0.9, where 1 is the maximum; inactive = score below 0.9.
Give your call using only these classes: active, inactive

# count of solved cases: 5
molecule=CN1COCN(Cc2cnc(Cl)s2)C1=N[N+](=O)[O-] group=inactive
molecule="COP(=O)(NC(C)=O)SC (stereo not given)" group=inactive
molecule="CC(COc1ccc(Oc2ccccc2)cc1)Oc1ccccn1 (stereo not given)" group=inactive
molecule=C=C(C)[C@H]1Cc2c(ccc3c2O[C@@H]2COc4cc(OC)c(OC)cc4[C@@H]2C3=O)O1 group=inactive
molecule="FC(F)C(F)(F)OCC(Cn1cncn1)c1ccc(Cl)cc1Cl (stereo not given)" group=inactive

So what was the verdict on `CC(=NC#N)N(C)Cc1ccc(Cl)nc1` in this test?
inactive

So what was the verdict on COP(=O)(OC)C(O)C(Cl)(Cl)Cl (stereo not given) in this test?
inactive

So what was the verdict on `CCOP(=S)(OCC)Oc1ccc2c(C)c(Cl)c(=O)oc2c1` in this test?
active

So what was the verdict on `N#CSCSC#N` in this test?
inactive

So what was the verdict on `O=C(O)c1cc(Oc2ccc(C(F)(F)F)cc2Cl)ccc1[N+](=O)[O-]` in this test?
inactive

---

Experiment: CCTE_Simmons_MITO_basal_resp_rate: CCTE's HepG2 Seahorse XF Respirometric Screening Assay at Basal Respiratory State, Simmons Lab (AID 2284001)
Settings: actives raise or lower the signal
Activity calls are given as the source filed them. Rule for the calls: active = hit-call score of the fitted dose curve at least 0.9, where 1 is the maximum; inactive = score below 0.9.
Give your call using only these classes: active, inactive

# count of solved cases: 3
compound=CON=C(C(=O)OC)c1ccccc1CON=C(C)c1cccc(C(F)(F)F)c1 group=active
compound=CCc1cccc(CC)c1N(COC)C(=O)CCl group=active
compound="CCc1cccc(C)c1N(C(=O)CCl)C(C)COC (configuration not stated)" group=active

So what was the verdict on `CCCCOC(=O)[C@@H](C)Oc1ccc(Oc2ccc(C#N)cc2F)cc1` in this test?
inactive

So what was the verdict on FC(F)C(F)(F)OCC(Cn1cncn1)c1ccc(Cl)cc1Cl (configuration not stated) in this test?
active

So what was the verdict on `CCCSP(=O)(OCC)SCCC` in this test?
active

So what was the verdict on CC(C)=CC1C(C(=O)OCN2C(=O)C3=C(CCCC3)C2=O)C1(C)C (configuration not stated) in this test?
active

So what was the verdict on CCCSP(=O)(OCC)Oc1ccc(Br)cc1Cl (configuration not stated) in this test?
inactive

So what was the verdict on `CCC(CC)Nc1c([N+](=O)[O-])cc(C)c(C)c1[N+](=O)[O-]` in this test?
active

So what was the verdict on `CCC(=O)Nc1ccc(Cl)c(Cl)c1` in this test?
active

So what was the verdict on `CC1(C(=O)Nc2ccc(O)c(Cl)c2Cl)CCCCC1` in this test?
active

So what was the verdict on CCOP(=S)(Oc1cnc(C(C)(C)C)nc1)OC(C)C (configuration not stated) in this test?
active
